Property: pIC50; scope: individual compounds
# experimental system: human PCSK9 (Homo sapiens)
# Sequence (Q8NBP7 153-692): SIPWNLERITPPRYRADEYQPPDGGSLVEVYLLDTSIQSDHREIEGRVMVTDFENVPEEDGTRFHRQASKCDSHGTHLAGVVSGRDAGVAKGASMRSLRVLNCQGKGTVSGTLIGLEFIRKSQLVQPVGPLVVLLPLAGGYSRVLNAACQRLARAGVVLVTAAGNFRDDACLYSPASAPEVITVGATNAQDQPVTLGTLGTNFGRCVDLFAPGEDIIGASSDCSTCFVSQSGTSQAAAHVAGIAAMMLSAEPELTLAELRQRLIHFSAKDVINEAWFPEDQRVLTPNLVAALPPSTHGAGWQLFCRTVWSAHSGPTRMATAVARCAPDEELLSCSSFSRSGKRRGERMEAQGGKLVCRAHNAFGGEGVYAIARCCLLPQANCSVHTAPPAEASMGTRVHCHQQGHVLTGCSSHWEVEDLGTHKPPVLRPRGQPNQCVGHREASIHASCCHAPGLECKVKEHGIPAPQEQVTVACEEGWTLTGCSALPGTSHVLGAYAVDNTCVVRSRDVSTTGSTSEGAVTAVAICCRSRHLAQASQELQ
# Sequence (Q8NBP7 31-152 partner limits assumed): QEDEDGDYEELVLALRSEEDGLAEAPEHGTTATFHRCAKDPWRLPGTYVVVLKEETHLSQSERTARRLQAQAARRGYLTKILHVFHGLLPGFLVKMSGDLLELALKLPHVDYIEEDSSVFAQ
# experiment notes: PCSK9 ligand binding TR-FRET assay (interference with binding of human PCSK9 to human LDLR)
# experimental parameters: TR-FRET; human PCSK9 Alexa Fluor 647 / human LDLR extracellular domain-Europium Kryptate; read-out: PCSK9 FRET Assay IC50
Expect pIC50 as a plain number equal to -log10 of the molar concentration.

// pIC50 lookup, compound = C=CC[C@@H]1CC(=O)N(Cc2ccc(Cl)cc2Oc2ccc(-c3cnc(CN(C)C)n3C)cc2)[C@@H](C)C(=O)N[C@@H](COC)C(=O)N(C)[C@@H](Cc2ccc(Cl)cc2)CC(=O)NC[C@H](C)N(C)C1=O [Compound 44] , result: 8.59

Measured pIC50, COC[C@@H]1NC(=O)[C@H](CN2CCC2)N(Cc2ccc(Cl)cc2Oc2ccc(-c3cnc(CN(C)C)n3C)cc2)C(=O)C[C@@H](Cc2ccccc2)C(=O)N(C)[C@@H](C)CNC(=O)C[C@H](Cc2ccc(Cl)cc2)N(C)C1=O [Compound 17] : 7.21

Reported pIC50 for COC[C@@H]1NC(=O)[C@H](C)N(Cc2ccc(Cl)cc2Oc2ccc(-c3cnc(CN(C)C)n3C)cc2)C(=O)C[C@@H](Cc2ccccc2)C(=O)N(C)[C@@H](CO)CNC(=O)C[C@H](Cc2ccc(Cl)cc2)N(C)C1=O [Compound 235] was 7.95

compound COC[C@@H]1NC(=O)[C@H](C)N(Cc2ccc(Cl)cc2Oc2ccc(-c3cnc(CN4CC5(COC5)C4)n3C)cc2)C(=O)C[C@@H](Cc2ccccc2)C(=O)N(C)[C@H]2CCCC[C@@H]2NC(=O)C[C@H](Cc2ccc(Cl)cc2)N(C)C1=O [Compound 157] , pIC50 observed: 8.74

Consider COC[C@@H]1NC(=O)[C@H](CCCNC(=O)OC(C)(C)C)N(Cc2ccc(Cl)cc2Oc2ccc(-c3cnc(CN(C)C)n3C)cc2)C(=O)C[C@@H](Cc2ccccc2)C(=O)N(C)[C@@H](C)CNC(=O)C[C@H](Cc2ccc(Cl)cc2)N(C)C1=O [Compound 4] . Its measured pIC50 is 8.54

---
Given item COC[C@@H]1NC(=O)[C@H](C)N(Cc2ccc(Cl)cc2Oc2ccc(-c3cnc(CN(C)C)n3C)cc2)C(=O)C[C@@H](Cc2cccnc2)C(=O)N(C)[C@H]2CCCC[C@@H]2NC(=O)C[C@H](Cc2ccc(Cl)cc2)N(C)C1=O [Compound 280] , the value recorded as its pIC50 is 9.22
